- TESTED ON: AgSla1-D1-D2
- TEST DETAILS: SPOT peptide array binding signal intensity (averaged, normalized) (arbitrary units (background-subtracted, floor 0; scale differs between SH3 domains)); higher = stronger binding of the SH3 domain to the peptide
REPORTED METRIC: SPOT peptide array binding signal intensity
Give bare numbers.

// known answers, use as guide
>>> reported_result("LYKRKPILLPDPKPL")
29
>>> reported_result("NRPAIRIPSLKKPAL")
24
>>> reported_result("LEFRAILFIPKRAPF")
14

Each binder below has a recorded value; state its SPOT peptide array binding signal intensity.
1. NFKRLLPRDPSEKSS
2. ATKSASPTLPTRRSR

[15.5, 74.5]
